- target or test system: COX-2 (Homo sapiens, UniProt P35354)
- Construct: purchased Biovision K547
- Sequence (P35354 18-604): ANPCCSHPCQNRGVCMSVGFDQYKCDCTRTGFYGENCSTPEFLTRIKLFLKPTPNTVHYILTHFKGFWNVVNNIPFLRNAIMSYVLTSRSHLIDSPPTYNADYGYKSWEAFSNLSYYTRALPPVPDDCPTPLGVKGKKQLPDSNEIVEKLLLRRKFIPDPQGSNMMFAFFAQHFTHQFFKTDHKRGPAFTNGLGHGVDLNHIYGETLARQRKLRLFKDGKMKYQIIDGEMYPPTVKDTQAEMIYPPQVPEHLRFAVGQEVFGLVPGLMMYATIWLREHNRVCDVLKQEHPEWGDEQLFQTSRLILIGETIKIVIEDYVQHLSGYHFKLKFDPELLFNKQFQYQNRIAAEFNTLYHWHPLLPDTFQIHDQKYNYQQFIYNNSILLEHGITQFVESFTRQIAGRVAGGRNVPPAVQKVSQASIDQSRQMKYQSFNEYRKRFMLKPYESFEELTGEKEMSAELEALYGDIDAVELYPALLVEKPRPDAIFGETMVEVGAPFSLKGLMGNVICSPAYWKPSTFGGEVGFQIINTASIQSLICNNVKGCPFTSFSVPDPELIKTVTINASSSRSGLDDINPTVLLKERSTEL
- experimental details: In vitro COX-2 inhibition (COX-2 Inhibitor Screening Kit-K547, Biovision)
- Assay type: biochemical
- condition description: COX-1 IC50/COX-2 IC50
property name: COX-2 S.I.

Answered cases to consult:
CCOC(=O)COc1ccc(C2=NN(c3ccc(S(C)(=O)=O)cc3)C(c3ccc(Cl)cc3)C2)cc1 (stereo not drawn) [Compound 15e]: 4.05
CCOC(=O)COc1ccc(C2=NN(c3ccc(S(C)(=O)=O)cc3)C(c3ccc([N+](=O)[O-])cc3)C2)cc1 (stereo not drawn) [Compound 15f]: 4.30

P: CCOC(=O)COc1ccc(C2=NN(c3ccc(S(C)(=O)=O)cc3)C(c3ccc(C)cc3)C2)cc1 (stereo not drawn) [Compound 15b]
Q: CCOC(=O)COc1ccc(C2=NN(c3ccc(S(C)(=O)=O)cc3)C(c3ccc(OC)cc3)C2)cc1 (stereo not drawn) [Compound 15c]
R: CCOC(=O)COc1ccc(C2=NN(c3ccc(S(C)(=O)=O)cc3)C(c3ccccc3)C2)cc1 (stereo not drawn) [Compound 15a]
S: CCOC(=O)COc1ccc(C2=NN(c3ccc(S(C)(=O)=O)cc3)C(c3ccccc3Br)C2)cc1 (stereo not drawn)
Request: Sort these compounds on COX-2 S.I. so the largest reading comes first. Please list each label once, in the requested order.
Result: Q, S, P, R
(Q: 28.56, S: 15.07, P: 5.89, R: 1.90)

* * *

- Tested on: carrageenan-induced rat paw edema
- experimental details: Carrageenan-induced rat paw edema assay
- Type: in vivo
- condition description: Rattus norvegicus; dose producing 50% edema inhibition
property name: ED50 (mg/kg)
# output: bare number, implied unit mg/kg

Recorded ED50, per entry:
Cc1ccc(-c2cc(C(F)(F)F)nn2-c2ccc(S(N)(=O)=O)cc2)cc1 [Celecoxib, celecoxib, reference compound]: 40.4
CCOC(=O)COc1ccc(C2=NN(c3ccc(S(C)(=O)=O)cc3)C(c3ccc(Br)cc3)C2)cc1 (stereo not shown) [Compound 15 h]: 29.9
CCOC(=O)COc1ccc(C2=NN(c3ccc(S(C)(=O)=O)cc3)C(c3ccc(OC)cc3)C2)cc1 (stereo not shown) [Compound 15c]: 24.1

From here, focus on the item given below.
Request: State ED50 (carrageenan-induced rat paw edema) of CCOC(=O)COc1ccc(C2=NN(c3ccc(S(C)(=O)=O)cc3)C(c3cc(OC)c(OC)c(OC)c3)C2)cc1 (stereo not shown) [Compound 15d] .
Result: 31.2

* * *

- experimental details: MTS cytotoxicity assay
- Assay type: cell-based
- condition description: mouse, RAW 264.7 macrophages (heading: LPS-induced), read-out: Cytotoxicity IC50 (LPS-induced RAW 264.7 cells)
property name: IC50 at 24 h (µM)
A number alone suffices; assume µM.

Request: # return recorded IC50 at 24 h for entry CCOC(=O)COc1ccc(C2=NN(c3ccc(S(C)(=O)=O)cc3)C(c3ccc(OC)cc3)C2)cc1 (stereo not shown) [Compound 15c]
Result: 301

Request: Please give measured IC50 at 24 h of the following entry: CCOC(=O)COc1ccc(C2=NN(c3ccc(S(C)(=O)=O)cc3)C(c3cc(OC)c(OC)c(OC)c3)C2)cc1 (stereo not shown) [Compound 15d]
Result: 183

Request: Supply measured IC50 at 24 h of CCOC(=O)COc1ccc(C2=NN(c3ccc(S(C)(=O)=O)cc3)C(c3ccc(Br)cc3)C2)cc1 (stereo not shown) [Compound 15 h] in your reply.
Result: 179

Request: Indicate the recorded IC50 at 24 h value for this compound: Cc1ccc(-c2cc(C(F)(F)F)nn2-c2ccc(S(N)(=O)=O)cc2)cc1 [Celecoxib, celecoxib, reference compound]
Result: 149
